Biological target: furin, P09958;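 note: purified furin at 1:10 enzyme:substrate in 50 mM HEPES pH 7.5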
Sequence (P09958 whole entry): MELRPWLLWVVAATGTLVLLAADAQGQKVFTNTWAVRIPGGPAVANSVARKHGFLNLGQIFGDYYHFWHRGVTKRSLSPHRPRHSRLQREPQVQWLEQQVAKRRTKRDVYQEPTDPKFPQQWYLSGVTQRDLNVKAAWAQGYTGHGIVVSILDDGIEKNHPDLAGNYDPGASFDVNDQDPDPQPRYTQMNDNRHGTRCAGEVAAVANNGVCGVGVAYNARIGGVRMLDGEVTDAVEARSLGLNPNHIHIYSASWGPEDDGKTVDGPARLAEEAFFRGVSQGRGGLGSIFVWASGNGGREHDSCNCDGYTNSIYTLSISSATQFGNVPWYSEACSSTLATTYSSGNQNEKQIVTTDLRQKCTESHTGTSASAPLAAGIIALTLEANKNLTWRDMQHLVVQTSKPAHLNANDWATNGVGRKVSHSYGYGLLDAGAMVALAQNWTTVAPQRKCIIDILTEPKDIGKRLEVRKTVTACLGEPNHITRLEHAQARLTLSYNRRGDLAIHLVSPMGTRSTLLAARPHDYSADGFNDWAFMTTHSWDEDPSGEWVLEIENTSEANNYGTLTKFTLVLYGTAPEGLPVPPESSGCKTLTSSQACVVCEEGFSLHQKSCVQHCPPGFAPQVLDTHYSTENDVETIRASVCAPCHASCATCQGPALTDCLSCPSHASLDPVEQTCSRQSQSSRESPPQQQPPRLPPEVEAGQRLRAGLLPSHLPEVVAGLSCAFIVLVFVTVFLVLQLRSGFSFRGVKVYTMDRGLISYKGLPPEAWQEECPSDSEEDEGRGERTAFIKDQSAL
Assay: furin cleavage Z-score vs untreated control; higher = more cleavage, active = 3.5 or more, inactive = 1 or less, 8 variable residues between constant flanks
Settings: 15 min
This is one part of the list. The hit rate among all sequences tested is not known here.
metric: furin cleavage Z-score
Reply with the value as a number alone.

Sample records with furin cleavage Z-score:
sequence_record: CARSKRDVGSAGNASASA [FS-2379]
furin cleavage Z-score: 11.3
--
sequence_record: CAVKKRKGRVAGNASASA [FS-922]
furin cleavage Z-score: 4.91
--
sequence_record: CACEIYGACYAGNASASA [HC1593]
furin cleavage Z-score: -1.53
--
sequence_record: CAEVPCHWPSAGNASASA [HC2368]
furin cleavage Z-score: -0.478
--
sequence_record: CACVVIVGRVAGNASASA [HC1000]
furin cleavage Z-score: -1.22
--
sequence_record: CAIVPCHRPSAGNASASA [HC2304]
furin cleavage Z-score: 0.63
--
sequence_record: CAHIDLLVGSAGNASASA [HC291]
furin cleavage Z-score: -1.31
--
sequence_record: CAEYEVPCHRAGNASASA [HC2449]
furin cleavage Z-score: 0.0222

Requested field: furin cleavage Z-score. Item: CASIFLLALLAGNASASA [HC248] -0.299

Requested field: furin cleavage Z-score. Item: CADQMWKCLIAGNASASA [HC963] 0.512

Requested field: furin cleavage Z-score. Item: CARSGRVVGSAGNASASA [FS-3235] 0.0813

Requested field: furin cleavage Z-score. Item: CARMKRAGRVAGNASASA [FS-1751] 5.19
